target: Proteasome Macropain subunit MB1 (Homo sapiens); assay: Inhibition of chymotrypsin-like activity of human 26S proteasome using Suc-LLVY-MCA as substrate measured for 1 hr by fluorescence assay
Sequence (P28074 whole entry): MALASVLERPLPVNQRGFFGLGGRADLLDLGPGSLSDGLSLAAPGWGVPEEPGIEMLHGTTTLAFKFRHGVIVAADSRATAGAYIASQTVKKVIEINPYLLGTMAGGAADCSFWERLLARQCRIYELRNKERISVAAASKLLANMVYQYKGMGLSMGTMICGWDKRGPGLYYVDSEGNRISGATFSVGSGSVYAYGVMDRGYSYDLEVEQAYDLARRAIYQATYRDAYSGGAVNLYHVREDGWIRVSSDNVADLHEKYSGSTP
Peptide text beside a SMILES is read from it. * marks the point of attachment. X1 = CCC(=C(c1ccc(OCCN2CCCCCC2)cc1)c1ccc(OCCN2CCCCCC2)cc1)c1cccc(C(=O)*)c1
assayMetric: IC50 (µM)
Form entry: value (µM) — number only.

Give the value of IC50 reported for the following: CCC(=C(c1ccc(OCCN2CCCCCC2)cc1)c1ccc(OCCN2CCCCCC2)cc1)c1cccc(C(=O)NCC(=O)N[C@@H](CC(C)C)C(=O)N[C@@H](CC(C)C)C(=O)N[C@@H](CC(C)C)C(=O)NCC(=O)NCC(=O)NCC(=O)NCC(N)=O)c1 (X1-GLLLGGGG-NH2)
5

Let us move to another entry and its IC50.
Give the value of IC50 reported for the following: CCC(=C(c1ccc(OCCN2CCCCCC2)cc1)c1ccc(OCCN2CCCCCC2)cc1)c1cccc(C(=O)NCC(=O)N[C@@H](CCCNC(=N)N)C(=O)N[C@@H](CCCNC(=N)N)C(=O)N[C@@H](CCCNC(=N)N)C(=O)N[C@@H](CCCNC(=N)N)C(=O)N[C@@H](CCCNC(=N)N)C(=O)N[C@@H](CCCNC(=N)N)C(=O)N[C@@H](CCCNC(=N)N)C(=O)N[C@@H](CCCNC(=N)N)C(N)=O)c1
5.5
